Target: T1, Human BCMA (human, UniProt Q02223 1-54, limits assumed)
T1 construct: also called huBCMA; B-cell maturation antigen
T1 sequence (looked up): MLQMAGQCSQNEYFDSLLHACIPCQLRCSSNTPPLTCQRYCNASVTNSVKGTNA
Assay: SPR, IgG immobilised, human BCMA analyte
pKd: −log10 of the molar value.
# if value of pKd reaches 10, tag MET; if it stays below, tag NOT MET

Reference set (2 entries):
| binder | class |
| --- | --- |
| COMBO_Rd4_0.6nM_C21 (antibody, V domains shown, IgG) VH: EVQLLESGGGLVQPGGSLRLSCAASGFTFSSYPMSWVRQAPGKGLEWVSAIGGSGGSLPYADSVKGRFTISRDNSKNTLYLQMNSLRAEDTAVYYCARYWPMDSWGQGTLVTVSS VL: EIVLTQSPGTLSLSPGERATLSCRASQSVSSSYLAWYQQKPGQAPRLLMYDASIRATGIPDRFSGSGSGTDFTLTISRLEPEDFAVYYCQQYQSWPLTFGQGTKVEIK | MET |
| P5C1_VHVL (antibody, V domains shown, IgG; also called PC1) VH: EVQLLESGGGLVQPGGSLRLSCAASGFTFSSYPMSWVRQAPGKGLEWVSAIGGSGGSTYYADSVKGRFTISRDNSKNTLYLQMNSLRAEDTAVYYCARYWPMDSWGQGTLVTVSS VL: EIVLTQSPGTLSLSPGERATLSCRASQSVSSTYLAWYQQKPGQAPRLLIYDASSRAPGIPDRFSGSGSGTDFTLTISRLEPEDFAVYYCQQYSTSPLTFGQGTKVEIK | NOT MET |

For this binder, is measured pKd 10 or higher? A02_Rd4_6nM_C19 (antibody, V domains shown, IgG) VH: EVQLLESGGGLVQPGGSLRLSCAASGFTFSSYAMNWVRQAPGKGLEWVSAISDSGGSRWYADSVKGRFTISRDNSKNTLYLQMNSLRAEDTAVYYCARYWPMSDWGQGTLVTVSS VL: EIVLTQSPGTLSLSPGERATLSCRASQSVSVLYLAWYQQKPGQAPRLLMYDASIRATGIPDRFSGSGSGTDFTLTISRLEPEDFAVYYCQQYLAWPLTFGQGTKVEIK
MET
